Where these numbers come from: BindingDB's records for doi:10.1021/jm00174a017

test: Tested for inhibition of [3H]PAF binding to rabbit Platelet activating factor receptor
Parameter: Ki (nM)

CCOC(=O)C1C(C)=NC(C)=C(C(=O)OCCSC)C1CC (stereo unspecified); 1010

a. CC1=NC(C)=C(C(=O)OCCSc2ccccc2)C(C)C1C(=O)OC(C)C (stereo unspecified)
b. CCOC(=O)C1C(C)=NC(C)=C(C(=O)OCCSc2ccccc2)C1C (stereo unspecified)
c. CC1=NC(C)=C(C(=O)OCCSc2ccccc2)C(C)C1C(=O)OCC1CCCO1 (stereo unspecified)
d. CCSCCOC(=O)C1=C(C)N=C(C)C(C(=O)OC)C1C (stereo unspecified)
Parameters: sort_field (Ki), sort_dir (desc). // ordering of labels required in reply
c, a, d, b
